Entry source: paper PMC4940736

- TEST_SYSTEM: oligomeric EBOV NP 36–450 / ssRNA (Zaire ebolavirus, UniProt P18272)
- Sequence (P18272 36-450 limits assumed): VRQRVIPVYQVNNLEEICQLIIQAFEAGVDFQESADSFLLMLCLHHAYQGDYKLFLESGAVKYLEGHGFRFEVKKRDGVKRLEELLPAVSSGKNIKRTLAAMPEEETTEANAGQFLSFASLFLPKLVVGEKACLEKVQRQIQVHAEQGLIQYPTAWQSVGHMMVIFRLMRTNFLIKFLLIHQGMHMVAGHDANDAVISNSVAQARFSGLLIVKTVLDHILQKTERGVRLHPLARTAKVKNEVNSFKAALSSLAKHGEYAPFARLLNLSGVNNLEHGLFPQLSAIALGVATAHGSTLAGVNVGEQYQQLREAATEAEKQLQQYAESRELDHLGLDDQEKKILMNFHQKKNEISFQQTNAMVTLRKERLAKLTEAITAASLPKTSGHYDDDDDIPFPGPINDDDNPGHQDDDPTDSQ
- EXPERIMENT: biochemical
pIC50: −log10 of the molar value.
MEASURED_ENDPOINT: pIC50

1) CC1(C(=O)O)CCC2(C)CCC3(C)C(=CC(=O)C4C5(C)CCC(O)C(C)(C)C5CCC43C)C2C1 (stereo not shown) | ~3.80

###

- TEST_SYSTEM: EBOV NP (amino acids 36–351) (Zaire ebolavirus, UniProt P18272)
- Type: binding, Ebola virus
MEASURED_ENDPOINT: S/N ratio (peak intensity protein incubation sample vs control)

1) O=c1cc(-c2ccc(O)cc2)oc2c([C@@H]3OC[C@H](O)[C@H](O)[C@H]3O)c(O)c([C@@H]3O[C@H](CO)[C@@H](O)[C@H](O)[C@H]3O)c(O)c12 [GC3, Schaftoside] | 1.47
2) CC1(C(=O)O)CCC2(C)CCC3(C)C(=CC(=O)C4C5(C)CCC(O)C(C)(C)C5CCC43C)C2C1 (stereo not drawn) [GC7, 18β-Glycyrrhetinic acid] | 2.62
3) COc1ccc(-c2coc3cc(O[C@@H]4O[C@H](CO)[C@@H](O)[C@H](O)[C@H]4O)ccc3c2=O)cc1 [GC5, Ononin] | 1.34
4) O=C1C[C@@H](c2ccc(O[C@@H]3O[C@H](CO)[C@@H](O)[C@H](O)[C@H]3O)cc2)Oc2cc(O)ccc21 [GC12, Liquiritin] | 1.31
5) C=CC(C)(C)c1cc(/C=C/C(=O)c2ccc(O)cc2)c(OC)cc1O [GC13, Licochalcone A] | 5.61
6) CC1(C)[C@@H](O[C@H]2O[C@H](C(=O)O)[C@@H](O)[C@H](O)[C@H]2O[C@@H]2O[C@H](C(=O)O)[C@@H](O)[C@H](O)[C@H]2O)CC[C@]2(C)[C@H]3C(=O)C=C4[C@@H]5C[C@@](C)(C(=O)O)CC[C@]5(C)CC[C@@]4(C)[C@]3(C)CC[C@@H]12 [GC6, Glycyrrhizin] | 1.84
7) O=C1C[C@@H](c2ccc(O)cc2)Oc2cc(O)ccc21 [GC8, Liquiritigenin] | 0.96
8) O=C1C[C@@H](c2ccc(O)cc2)Oc2cc(O[C@@H]3O[C@H](CO)[C@@H](O)[C@H](O)[C@H]3O)ccc21 [GC2, Neoliquiritin] | 1.31
9) CC1(C)[C@@H](O)CC[C@]2(C)[C@H]3C(=O)C=C4[C@H]5C[C@@](C)(C(=O)O)CC[C@]5(C)CC[C@@]4(C)[C@]3(C)CC[C@@H]12 [GC10, 18α-Glycyrrhetinic acid] | 2.62
10) O=C(/C=C/c1ccc(O[C@@H]2O[C@H](CO)[C@@H](O)[C@H](O)[C@H]2O)cc1)c1ccc(O)cc1O [GC14, Isoliquiritin] | 0.49
11) COc1ccc(-c2coc3cc(O)ccc3c2=O)cc1O [GC9, Calycosin] | 1.21
12) O=C(/C=C/c1ccc(O)cc1)c1ccc(O)cc1O [GC11, Isoliquiritigenin] | 1.11
13) O=C(/C=C/c1ccc(O)cc1)c1ccc(O[C@@H]2O[C@H](CO)[C@@H](O)[C@H](O)[C@H]2O)cc1O [GC4, Neoisoliquiritin] | 1.46
